Measured kon, listed per entry for reference.
# system: T1, cynomolgus monkey E-selectin extracellular domain with 10 His purification tail (cynomolgus monkey, UniProt P16581 22-554 (human entry))
# T1 construct: also called cynomolgus E-selectin; truncated cynomolgus monkey E-selectin
# T1 chain: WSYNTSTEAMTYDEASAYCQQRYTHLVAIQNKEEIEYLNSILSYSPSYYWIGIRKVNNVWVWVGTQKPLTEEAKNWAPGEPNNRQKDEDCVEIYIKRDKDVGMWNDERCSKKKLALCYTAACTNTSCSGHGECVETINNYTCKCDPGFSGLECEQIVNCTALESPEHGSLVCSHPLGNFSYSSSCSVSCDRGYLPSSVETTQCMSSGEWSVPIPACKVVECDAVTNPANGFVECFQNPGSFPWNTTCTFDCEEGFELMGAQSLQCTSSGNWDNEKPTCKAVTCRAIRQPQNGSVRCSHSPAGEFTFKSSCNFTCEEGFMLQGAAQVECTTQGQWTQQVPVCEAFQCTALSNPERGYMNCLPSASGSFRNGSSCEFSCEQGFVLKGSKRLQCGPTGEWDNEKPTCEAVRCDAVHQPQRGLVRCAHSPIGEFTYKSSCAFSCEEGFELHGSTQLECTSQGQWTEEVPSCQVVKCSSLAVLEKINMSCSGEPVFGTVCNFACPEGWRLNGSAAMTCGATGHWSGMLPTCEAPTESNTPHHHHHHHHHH
# testDescription: SPR, antibody captured, E-selectin analyte
endpointName: kon (M⁻¹ s⁻¹)

binder	endpointName	readingUnit	resultValue
optimized anti-E-selectin antibody 1284 (antibody, human IgG1, kappa, V domains shown, effector-null human IgG1, kappa) VH: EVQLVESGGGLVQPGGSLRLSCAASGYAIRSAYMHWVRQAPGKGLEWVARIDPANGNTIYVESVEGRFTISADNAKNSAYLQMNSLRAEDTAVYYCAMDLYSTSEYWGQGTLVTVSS VL: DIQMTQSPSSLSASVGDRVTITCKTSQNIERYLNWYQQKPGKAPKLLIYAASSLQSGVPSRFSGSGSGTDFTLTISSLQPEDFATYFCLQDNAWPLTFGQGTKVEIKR	kon	M⁻¹ s⁻¹	236000
optimized anti-E-selectin antibody 1444 (antibody, human IgG1, kappa, V domains shown, effector-null human IgG1, kappa) VH: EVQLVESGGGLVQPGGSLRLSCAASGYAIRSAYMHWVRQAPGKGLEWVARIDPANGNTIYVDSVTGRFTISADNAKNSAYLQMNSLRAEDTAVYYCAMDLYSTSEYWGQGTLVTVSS VL: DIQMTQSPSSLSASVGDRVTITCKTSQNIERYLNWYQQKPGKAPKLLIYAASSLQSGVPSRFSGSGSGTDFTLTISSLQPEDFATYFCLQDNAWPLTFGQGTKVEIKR	kon	M⁻¹ s⁻¹	211000
optimized anti-E-selectin antibody 1282 (antibody, human IgG1, kappa, V domains shown, effector-null human IgG1, kappa) VH: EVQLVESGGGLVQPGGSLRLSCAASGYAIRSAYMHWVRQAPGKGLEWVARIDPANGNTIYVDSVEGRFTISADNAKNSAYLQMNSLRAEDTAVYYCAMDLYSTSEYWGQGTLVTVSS VL: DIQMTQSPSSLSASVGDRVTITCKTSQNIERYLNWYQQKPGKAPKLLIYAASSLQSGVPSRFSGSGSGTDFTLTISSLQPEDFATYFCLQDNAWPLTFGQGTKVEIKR	kon	M⁻¹ s⁻¹	227000
optimized anti-E-selectin antibody 1448 (antibody, human IgG1, kappa, V domains shown, effector-null human IgG1, kappa) VH: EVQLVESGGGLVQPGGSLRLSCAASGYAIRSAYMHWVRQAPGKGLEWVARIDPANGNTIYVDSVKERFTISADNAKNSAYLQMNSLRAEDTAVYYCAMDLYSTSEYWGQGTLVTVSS VL: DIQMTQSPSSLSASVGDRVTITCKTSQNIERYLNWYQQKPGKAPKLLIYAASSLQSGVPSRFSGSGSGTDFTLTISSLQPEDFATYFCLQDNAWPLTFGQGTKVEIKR	kon	M⁻¹ s⁻¹	222000
